Measured values drawn from paper PMC11323322 for this set.

target-entity: IL-6 (interleukin-6) (human, UniProt P05231 30-212)
Sequence (P05231 30-212): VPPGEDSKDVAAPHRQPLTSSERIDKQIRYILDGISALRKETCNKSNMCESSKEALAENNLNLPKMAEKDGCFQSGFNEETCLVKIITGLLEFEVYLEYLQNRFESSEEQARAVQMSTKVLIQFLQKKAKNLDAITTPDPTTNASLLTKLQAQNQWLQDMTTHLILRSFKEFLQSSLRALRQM
test-details: pull-down, real-time PCR; 1x PBSMT pH 7.2: 137 mM NaCl, 2.68 mM KCl, 8.1 mM Na2HPO4, 1.76 mM KH2PO4, 1 mM MgCl2, 0.025% Tween-20; pull-down 1 h (room temperature in SELEX); MST at 25 C
stated-conditions: protein: commercial; circular
assay-endpoint: binding result

[[record]]
binder = "CIL-6A4-1 (ssDNA, circular) DNA: ATCTCGACTAGTCAGGGATACCGGATGGGGAGGCTGTGGTGAGGGTATGGTTGTCTCGGATTGGTTGTCTCGGAT"
assay_endpoint = "binding result"
endpoint_value = "binds"

[[record]]
binder = "CIL-6C (ssDNA, circular) DNA: ATCTCGACTAGTCATATGGTGTAGATCCTTGGGGAGGCTGTGGTGAGGGGGTTGAAGGTAGTTGCTCGTTGTCTCGGAT"
assay_endpoint = "binding result"
endpoint_value = "binds"

[[record]]
binder = "CIL-6A46 (ssDNA, circular) DNA: ATCTCGACTAGTCAGGGATATGGGGAGGCTGTGGTGAGGGTATGGTTGTCTCGGATTGGTTGTCTCGGAT"
assay_endpoint = "binding result"
endpoint_value = "binds"

